Value source: the RNAGym collection of RNA variant scans (doi:10.1021/acssynbio.7b00057)

B1: Pistol ribozyme (parent)
chain: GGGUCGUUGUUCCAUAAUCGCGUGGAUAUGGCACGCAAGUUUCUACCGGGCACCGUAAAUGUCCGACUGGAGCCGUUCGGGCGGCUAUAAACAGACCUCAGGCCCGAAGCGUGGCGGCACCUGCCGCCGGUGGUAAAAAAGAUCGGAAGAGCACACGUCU

Variants of: B1
Assay: aptazyme ON/OFF ratio, guanine; higher = stronger switching; co-transcriptional cleavage with and without guanine
So I've got a bunch of variants here, and I need their aptazyme ON/OFF ratio values.
Hey, just send me the number, nothing else.

Q) Quick check: aptazyme ON/OFF ratio of U7G U8G U11C C12U C13U ?
A) 1.44

Q) So what's the measured aptazyme ON/OFF ratio for this one? U7A G9C U10C U11C C13G
A) 1.01

Q) Item U7A U8A G9U U10C U11G C12U C13A has what recorded aptazyme ON/OFF ratio?
A) 1.15

Q) Recorded aptazyme ON/OFF ratio for U7G U8G U10G U11G C13U , please?
A) 1.37

Q) Item under review: U7C U8G U10A U11C C13A . Reported aptazyme ON/OFF ratio?
A) 1.02

Q) Give the measured aptazyme ON/OFF ratio of U7C U8A U10C U11C C12A C13U .
A) 1.27

Q) Returns the measured aptazyme ON/OFF ratio for the input variant. Input: U7G U8A G9A U11A C12A C13G
A) 1.08

Q) What does the record list as aptazyme ON/OFF ratio for U8A U10A U11A ?
A) 1.14

Q) What does the record list as aptazyme ON/OFF ratio for U7A G9C C12A C13A ?
A) 1.07

Q) Recorded aptazyme ON/OFF ratio for U8G U11C C12U C13U , please?
A) 1.3

Q) Give the measured aptazyme ON/OFF ratio of U7C U8A C12G C13U .
A) 1.3

Q) Any idea what aptazyme ON/OFF ratio was measured for U7G U8A G9C U10C C12A ?
A) 1.02

Q) # aptazyme ON/OFF ratio lookup, item U7C U8G G9U U10C U11A C12G C13G
A) 1.21

Q) I would be grateful if you could share the reported aptazyme ON/OFF ratio for U7G U8C G9C U10C U11C C13U .
A) 0.999

Q) Return reported aptazyme ON/OFF ratio; argument: G9A U10G U11C C12G C13G
A) 1.27

Q) Can you share its aptazyme ON/OFF ratio? I mean this variant: U7C U8C G9C U10G U11C C12A C13U
A) 1.09

Q) Bench note: what aptazyme ON/OFF ratio did U7C U8C G9A U11C C12A C13U show?
A) 1.38

Q) Can you look up the measured aptazyme ON/OFF ratio of U8C U10C C12A C13G for me?
A) 1.17

Q) Could you share which aptazyme ON/OFF ratio value was measured for U7C U8C G9U U10A U11A C12G C13A ?
A) 1.03

Q) aptazyme ON/OFF ratio for U7G U8G G9U U10C U11G C12G C13G ?
A) 1.15

Q) Query (variant): U11G ; field requested: aptazyme ON/OFF ratio
A) 1.22

Q) Bench note: what aptazyme ON/OFF ratio did U7G G9C U10G U11G C12U show?
A) 1.32
